System Under Test: Porcine ventricle myofibrils (ventricular myosin ATPase) (Sus scrofa, UniProt P79293)
Construct: Myofibrils from porcine cardiac muscle was isolated from the left ventricle of Yucatan minipigs; tissue Exemplar Genetics; host or cells: left ventricle of Yucatan minipigs, myofibrils prepared in house
Sequence (P79293 whole entry): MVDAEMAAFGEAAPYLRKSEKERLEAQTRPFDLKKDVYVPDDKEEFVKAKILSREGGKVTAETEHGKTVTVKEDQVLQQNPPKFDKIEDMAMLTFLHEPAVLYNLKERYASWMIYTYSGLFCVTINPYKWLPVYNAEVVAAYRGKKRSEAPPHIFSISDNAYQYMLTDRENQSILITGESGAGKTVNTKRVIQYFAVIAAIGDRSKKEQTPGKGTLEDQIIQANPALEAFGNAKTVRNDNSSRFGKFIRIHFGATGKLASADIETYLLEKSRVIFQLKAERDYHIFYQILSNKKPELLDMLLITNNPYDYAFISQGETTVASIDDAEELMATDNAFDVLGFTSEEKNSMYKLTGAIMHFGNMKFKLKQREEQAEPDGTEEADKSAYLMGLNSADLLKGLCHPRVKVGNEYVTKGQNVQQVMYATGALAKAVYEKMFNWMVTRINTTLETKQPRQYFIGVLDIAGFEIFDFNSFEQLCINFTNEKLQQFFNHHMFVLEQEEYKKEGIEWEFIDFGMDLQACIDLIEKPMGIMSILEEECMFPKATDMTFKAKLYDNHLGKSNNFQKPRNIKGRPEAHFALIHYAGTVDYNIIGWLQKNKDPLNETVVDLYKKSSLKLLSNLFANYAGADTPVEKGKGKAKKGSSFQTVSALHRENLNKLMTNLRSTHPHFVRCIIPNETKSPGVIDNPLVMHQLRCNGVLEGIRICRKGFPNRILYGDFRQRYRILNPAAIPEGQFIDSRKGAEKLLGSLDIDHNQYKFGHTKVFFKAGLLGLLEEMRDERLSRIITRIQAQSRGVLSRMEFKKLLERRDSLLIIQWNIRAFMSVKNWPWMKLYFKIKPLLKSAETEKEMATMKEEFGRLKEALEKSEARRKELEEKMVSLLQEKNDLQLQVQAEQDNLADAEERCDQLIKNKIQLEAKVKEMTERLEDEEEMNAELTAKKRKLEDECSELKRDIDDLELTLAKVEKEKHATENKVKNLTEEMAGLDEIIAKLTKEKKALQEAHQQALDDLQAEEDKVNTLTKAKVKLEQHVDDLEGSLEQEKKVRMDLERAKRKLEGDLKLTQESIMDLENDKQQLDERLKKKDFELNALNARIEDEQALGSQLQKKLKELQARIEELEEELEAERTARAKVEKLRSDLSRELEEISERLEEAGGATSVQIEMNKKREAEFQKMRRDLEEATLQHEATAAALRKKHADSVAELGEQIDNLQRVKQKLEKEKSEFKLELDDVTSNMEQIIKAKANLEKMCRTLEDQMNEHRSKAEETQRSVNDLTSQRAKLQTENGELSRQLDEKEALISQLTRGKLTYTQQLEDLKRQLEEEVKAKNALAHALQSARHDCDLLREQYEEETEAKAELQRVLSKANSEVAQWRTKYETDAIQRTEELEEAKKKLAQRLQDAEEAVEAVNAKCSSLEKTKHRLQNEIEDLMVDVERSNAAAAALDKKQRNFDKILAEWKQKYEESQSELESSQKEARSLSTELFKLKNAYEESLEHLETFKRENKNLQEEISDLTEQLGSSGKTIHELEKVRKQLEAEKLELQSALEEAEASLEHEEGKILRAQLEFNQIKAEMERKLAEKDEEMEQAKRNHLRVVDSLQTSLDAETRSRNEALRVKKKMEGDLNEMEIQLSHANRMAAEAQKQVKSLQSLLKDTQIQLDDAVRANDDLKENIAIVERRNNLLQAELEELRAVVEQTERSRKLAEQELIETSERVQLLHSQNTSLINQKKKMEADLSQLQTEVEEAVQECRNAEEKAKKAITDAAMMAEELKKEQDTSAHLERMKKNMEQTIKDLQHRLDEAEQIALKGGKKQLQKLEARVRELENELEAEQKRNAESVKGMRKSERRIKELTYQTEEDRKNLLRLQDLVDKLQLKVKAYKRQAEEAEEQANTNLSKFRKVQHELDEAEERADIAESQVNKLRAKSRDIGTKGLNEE
Test Description: Myofibril ATPase assay, porcine ventricle myofibrils
Format: biochemical, porcine (Yucatan minipigs)
Setup Conditions: porcine ventricle myofibrils; Y75 value
Value Kind: Ventricular EC25 (µM)

Some compounds with known Ventricular EC25 results, for comparison:
Cc1c(CC(=O)N[C@H](CO)c2ccc(C#N)cc2F)c(=O)[nH]c2cnnc(C#N)c12
100.00
Cc1nccc2[nH]c(=O)c(C3(C(=O)N[C@H](C)c4ncc(C#N)cc4F)CC3)c(C)c12 (single isomer, unassigned)
17.07
C[C@@H](NC(=O)Cc1c(C2CC2)c2cnccc2[nH]c1=O)c1ncc(C#N)cc1F
100.00
Cc1c(CC(=O)N[C@@H](CO)c2ccc(C#N)cc2F)c(=O)[nH]c2ccnc(C#N)c12 (single isomer, unassigned)
0.52

I: Cc1c(CC(=O)N[C@@H]2c3c(F)cc(F)cc3OC2(C)C)c(=O)[nH]c2ccnc(C#N)c12 (single isomer, unassigned)
II: Cc1c([C@H](C)C(=O)N[C@@H](C)c2ccc(F)cc2F)c(=O)[nH]c2ccc(C(F)(F)F)nc12 (single isomer, unassigned)
[ask] // returns I or II , whichever has the lower Ventricular EC25 State your choice using its label.
[reply] I

###

Tested on: Rabbit Psoas myofibrils (skeletal myosin ATPase)
Test Description: Myofibril ATPase assay, rabbit psoas (skeletal) myofibrils
Type: biochemical
Setup Conditions: Y75 value (no ‡ mark); rabbit psoas myofibrils
Value Kind: Skeletal EC25 (nM)

Cc1nc(C#N)ncc1[C@@H](C)NC(=O)Cc1c(C)c2c(F)c(F)ccc2[nH]c1=O [compound 1131]
530
Cc1nnccc1C(C)NC(=O)Cc1cc2cc(F)c(F)cc2[nH]c1=O (stereo not drawn) [compound 2073]
100000
Cc1c(CC(=O)N[C@H](C)c2ncc(C#N)cc2F)c(=O)[nH]c2ccc(F)c(C#N)c12 [compound 31]
60
C[C@H](NC(=O)Cc1cc2c(F)c(F)ccc2[nH]c1=O)c1cnc(C#N)cn1 (single isomer, unassigned) [compound 12]
30
C[C@@H](NC(=O)Cc1cc2cc(F)c(F)cc2[nH]c1=O)c1ncc(C#N)cc1F (single isomer, unassigned) [compound 3]
2330

1: Cc1c(CC(=O)N[C@H](C)c2ccc(C#N)cn2)c(=O)[nH]c2cccc(C#N)c12 [compound 1076]
2: Cc1c(C2(C(=O)N[C@@H]3CCc4cc(C#N)cnc43)CC2)c(=O)[nH]c2ccc(F)cc12 (single isomer, unassigned) [compound 2503]
3: C[C@H](NC(=O)Cc1c(C#N)c2cc(F)ccc2[nH]c1=O)c1ncc(C#N)cc1F [compound 1095]
4: N#Cc1cnc2c(c1)COC[C@@H]2NC(=O)Cc1cc2cc(F)c(F)cc2[nH]c1=O [compound 1055]
5: Cc1c(CC(=O)N[C@@H](C)c2ccc(F)cc2F)c(=O)[nH]c2cccc(F)c12 [compound 130]
[ask] Please rank these compounds by Skeletal EC25 in descending order. Your task in answering is to list the labels in the requested order.
[reply] 2, 4, 1, 3, 5
(2: 100000 nM, 4: 18000 nM, 1: 350 nM, 3: 60 nM, 5: 30 nM)

I: CC(NC(=O)C1(c2cc3c(F)c(F)ccc3[nH]c2=O)CC1)c1cccc(C#N)n1 (single isomer, unassigned) [Compound 2569]
II: Cc1c(CC(=O)N[C@@H](C)c2ccc(F)cn2)c(=O)[nH]c2cccc(F)c12 [compound 44]
III: Cc1c(C2(C(=O)N[C@H](C)c3ncc(C#N)cc3F)CC2)c(=O)[nH]c2ccc(F)cc12 (single isomer, unassigned) [compound 2596]
IV: Cc1cc(F)cnc1[C@@H](C)NC(=O)C1(c2cc3c(F)c(F)ccc3[nH]c2=O)CC1 (single isomer, unassigned) [compound 4805]
[ask] Please rank these compounds by Skeletal EC25 in descending order. Your task in answering is to list the labels in the requested order.
[reply] I, IV, III, II
